assay: Half life in Sprague-Dawley rat at 10 mg/kg, po; format: ADME, organism-based; design: dose 10 mg/kg, route oral; settings: in vivo

[
  {
    "mol": "C[C@@H](NC(=O)[C@H](O)[C@@H](O)C(=O)N1CCC[C@@H]1c1cccc(Cl)c1)c1ccc(-n2cccn2)cc1",
    "units-of-measure": "min",
    "half-life": 36
  }
]

----------
target: 72 kDa type IV collagenase (Homo sapiens, UniProt P08253)
Sequence (P08253 whole entry): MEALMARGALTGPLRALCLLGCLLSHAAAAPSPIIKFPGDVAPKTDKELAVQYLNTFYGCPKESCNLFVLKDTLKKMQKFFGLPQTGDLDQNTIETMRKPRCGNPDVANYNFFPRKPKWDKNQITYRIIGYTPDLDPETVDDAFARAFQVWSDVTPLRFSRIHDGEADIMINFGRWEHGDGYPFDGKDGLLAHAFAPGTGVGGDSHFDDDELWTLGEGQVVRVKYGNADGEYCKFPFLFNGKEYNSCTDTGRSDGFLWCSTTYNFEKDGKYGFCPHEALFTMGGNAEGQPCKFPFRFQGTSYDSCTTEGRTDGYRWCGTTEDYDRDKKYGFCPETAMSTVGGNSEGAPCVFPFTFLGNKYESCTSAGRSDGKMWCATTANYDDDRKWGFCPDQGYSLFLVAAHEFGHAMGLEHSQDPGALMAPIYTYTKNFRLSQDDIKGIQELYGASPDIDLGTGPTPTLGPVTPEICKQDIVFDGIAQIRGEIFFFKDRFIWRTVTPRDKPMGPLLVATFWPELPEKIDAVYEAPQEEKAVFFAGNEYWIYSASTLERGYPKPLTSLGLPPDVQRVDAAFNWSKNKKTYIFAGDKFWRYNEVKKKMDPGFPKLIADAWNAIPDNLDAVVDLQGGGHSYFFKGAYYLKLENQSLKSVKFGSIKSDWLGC
pKi: −log10 of the molar value.

[
  {
    "mol": "C[C@@H](NC(=O)[C@H](O)[C@@H](O)C(=O)N1CCC[C@@H]1c1cccc(Cl)c1)c1ccc(-n2cccn2)cc1",
    "pKi": 4.36
  }
]

----------
These records show Ki for Disintegrin and metalloproteinase domain-containing protein 17 (Homo sapiens).

[
  {
    "compound": "O=C(NCc1ccc(Cn2ccnc2)s1)[C@H](O)[C@@H](O)C(=O)N1CCC[C@@H]1c1cccc(Cl)c1",
    "target-or-test-system": "Disintegrin and metalloproteinase domain-containing protein 17 (Homo sapiens)",
    "Ki": "37 nM"
  },
  {
    "compound": "O=C(NCc1ccc(-c2ccon2)cc1)[C@H](O)[C@@H](O)C(=O)N1CCC[C@@H]1c1ccccc1",
    "target-or-test-system": "Disintegrin and metalloproteinase domain-containing protein 17 (Homo sapiens)",
    "Ki": "8 nM"
  },
  {
    "compound": "Cc1nc2ccccc2n1Cc1ccc(CNC(=O)[C@H](O)[C@@H](O)C(=O)N2CCCC2c2ccncc2)s1 (mixture of isomers)",
    "target-or-test-system": "Disintegrin and metalloproteinase domain-containing protein 17 (Homo sapiens)",
    "Ki": "36 nM"
  },
  {
    "compound": "N#Cc1ccccc1-c1ccc(CNC(=O)[C@H](O)[C@@H](O)C(=O)N2CCC[C@@H]2c2ccccc2)cc1",
    "target-or-test-system": "Disintegrin and metalloproteinase domain-containing protein 17 (Homo sapiens)",
    "Ki": "17 nM"
  }
]

----------
target: Disintegrin and metalloproteinase domain-containing protein 17 (Homo sapiens, UniProt P78536)
Sequence (P78536 whole entry, the tested form may be a part): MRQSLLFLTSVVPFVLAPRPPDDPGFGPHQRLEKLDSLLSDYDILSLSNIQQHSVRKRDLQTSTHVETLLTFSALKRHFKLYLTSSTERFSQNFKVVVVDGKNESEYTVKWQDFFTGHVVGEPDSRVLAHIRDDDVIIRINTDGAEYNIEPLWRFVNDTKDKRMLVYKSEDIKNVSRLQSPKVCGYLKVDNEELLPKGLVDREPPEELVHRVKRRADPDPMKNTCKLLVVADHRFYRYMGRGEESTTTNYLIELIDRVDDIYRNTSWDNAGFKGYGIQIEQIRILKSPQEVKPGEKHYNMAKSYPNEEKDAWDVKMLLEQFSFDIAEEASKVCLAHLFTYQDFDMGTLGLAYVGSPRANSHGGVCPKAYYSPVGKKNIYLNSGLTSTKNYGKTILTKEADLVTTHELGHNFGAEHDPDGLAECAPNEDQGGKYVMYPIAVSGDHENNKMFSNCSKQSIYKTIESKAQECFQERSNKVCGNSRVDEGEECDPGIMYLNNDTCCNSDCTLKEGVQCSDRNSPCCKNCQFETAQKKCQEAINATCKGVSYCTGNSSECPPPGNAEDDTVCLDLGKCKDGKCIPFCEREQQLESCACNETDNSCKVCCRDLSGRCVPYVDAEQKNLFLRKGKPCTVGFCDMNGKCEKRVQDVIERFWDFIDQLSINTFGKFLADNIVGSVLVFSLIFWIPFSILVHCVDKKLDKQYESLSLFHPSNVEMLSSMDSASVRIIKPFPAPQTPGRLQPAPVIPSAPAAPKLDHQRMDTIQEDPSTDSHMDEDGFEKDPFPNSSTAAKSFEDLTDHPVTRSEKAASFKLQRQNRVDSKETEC
List of Ki values.

[
  {
    "compound": "Cc1nc2ccccc2n1Cc1ccc(CNC(=O)[C@H](O)[C@@H](O)C(=O)N2CCCC2c2cccs2)s1 (mixture of isomers)",
    "Ki [nM]": 4
  },
  {
    "compound": "N#Cc1cnccc1-c1ccc(CNC(=O)[C@H](O)[C@@H](O)C(=O)N2CCC[C@@H]2c2ccccc2)cc1",
    "Ki [nM]": 5
  },
  {
    "compound": "O=C(NCc1cc(Cc2ccccc2)cs1)[C@H](O)[C@@H](O)C(=O)N1CCCC1c1cccc(Cl)c1 (stereo not given in full)",
    "Ki [nM]": 45
  },
  {
    "compound": "C[C@H]1CN(c2ccccc2C#N)CCC1CNC(=O)[C@H](O)[C@@H](O)C(=O)N1CCC[C@@H]1c1ccccc1 (stereo not given in full)",
    "Ki [nM]": 315
  },
  {
    "compound": "Cc1nc2ccccc2n1Cc1ccc(CNC(=O)[C@H](O)[C@@H](O)C(=O)N2CCCC2c2ccccn2)s1 (mixture of isomers)",
    "Ki [nM]": 8
  },
  {
    "compound": "O=C(NCc1ccc(-c2ccncc2)cc1)[C@H](O)[C@@H](O)C(=O)N1CCC[C@@H]1c1ccccc1",
    "Ki [nM]": 15
  },
  {
    "compound": "C[C@@H]1CN(c2ccccc2C#N)CCC1CNC(=O)[C@H](O)[C@@H](O)C(=O)N1CCC[C@@H]1c1ccccc1 (stereo not given in full)",
    "Ki [nM]": 2
  },
  {
    "compound": "Cc1nc2ccccc2n1Cc1ccc(CNC(=O)[C@H](O)[C@@H](O)C(=O)N2CCCC2c2cccnc2)s1 (mixture of isomers)",
    "Ki [nM]": 12
  },
  {
    "compound": "O=C(NCc1ccc(-c2cccnc2)cc1)[C@H](O)[C@@H](O)C(=O)N1CCC[C@@H]1c1ccccc1",
    "Ki [nM]": 36
  },
  {
    "compound": "N#Cc1ccccc1N1CC2C(CNC(=O)[C@H](O)[C@@H](O)C(=O)N3CCC[C@@H]3c3ccccc3)C2C1 (stereo not given in full)",
    "Ki [nM]": 12
  },
  {
    "compound": "O=C(NCc1ccc(Cc2cccc(Cl)c2)s1)[C@H](O)[C@@H](O)C(=O)N1CCC[C@@H]1c1cccc(Cl)c1",
    "Ki [nM]": 48
  },
  {
    "compound": "N#Cc1ccccc1N1CCC(CNC(=O)[C@H](O)[C@@H](O)C(=O)N2CCCC2c2cccc(Cl)c2)CC1 (mixture of isomers)",
    "Ki [nM]": 4
  },
  {
    "compound": "O=C(NCc1ccc(-n2cccn2)cc1)[C@H](O)[C@@H](O)C(=O)N1CCCC1c1cccc(Cl)c1 (mixture of isomers)",
    "Ki [nM]": 4
  },
  {
    "compound": "C[C@@H](NC(=O)[C@H](O)[C@@H](O)C(=O)N1CCC[C@@H]1c1cccc(Cl)c1)c1ccc(-n2cccn2)cc1",
    "Ki [nM]": 0.86
  },
  {
    "compound": "O=C(NCc1ccc(-c2ccsc2)cc1)[C@H](O)[C@@H](O)C(=O)N1CCC[C@@H]1c1ccccc1",
    "Ki [nM]": 13
  },
  {
    "compound": "O=C(NCc1ccc(-c2csnn2)cc1)[C@H](O)[C@@H](O)C(=O)N1CCCC1c1cccc(Cl)c1 (mixture of isomers)",
    "Ki [nM]": 3
  },
  {
    "compound": "Cc1nc2ccccc2n1Cc1ccc(CNC(=O)[C@H](O)[C@@H](O)C(=O)N2CCC[C@@H]2c2csc(N)n2)s1",
    "Ki [nM]": 2
  },
  {
    "compound": "O=C(NCc1ccc(-c2ccccc2)cc1)[C@H](O)[C@@H](O)C(=O)N1CCC[C@@H]1c1ccccc1",
    "Ki [nM]": 22
  },
  {
    "compound": "O=C(NCc1ccc(-n2ccnc2)cc1)[C@H](O)[C@@H](O)C(=O)N1CCCC1c1cccc(Cl)c1 (mixture of isomers)",
    "Ki [nM]": 270
  },
  {
    "compound": "O=C(NCc1ccc(-c2cscn2)cc1)[C@H](O)[C@@H](O)C(=O)N1CCCC1c1cccc(Cl)c1 (mixture of isomers)",
    "Ki [nM]": 18
  },
  {
    "compound": "Cc1nc2ccccc2n1-c1ccc(CNC(=O)[C@H](O)[C@@H](O)C(=O)N2CCCC2c2cccc(Cl)c2)cc1 (mixture of isomers)",
    "Ki [nM]": 296
  },
  {
    "compound": "Cc1nc2ccccc2n1Cc1ccc(CNC(=O)[C@H](O)[C@@H](O)C(=O)N2Cc3ccccc3C2)s1",
    "Ki [nM]": 0.5
  },
  {
    "compound": "O=C(NCc1ccc(Cn2c(C(F)(F)F)nc3ccccc32)s1)[C@H](O)[C@@H](O)C(=O)N1Cc2ccccc2C1",
    "Ki [nM]": 0.2
  },
  {
    "compound": "O=C(NCc1ccc(-c2ccccc2)nc1)[C@H](O)[C@@H](O)C(=O)N1CCCC1c1cccc(Cl)c1 (mixture of isomers)",
    "Ki [nM]": 307
  },
  {
    "compound": "O=C(NCc1ccc(-c2ccccc2)cn1)[C@H](O)[C@@H](O)C(=O)N1CCCC1c1cccc(Cl)c1 (mixture of isomers)",
    "Ki [nM]": 6
  },
  {
    "compound": "COc1ccccc1Cc1ccc(CNC(=O)[C@H](O)[C@@H](O)C(=O)N2CCC[C@@H]2c2cccc(Cl)c2)s1",
    "Ki [nM]": 3
  },
  {
    "compound": "O=C(NCc1ccc(Cc2ccsc2)s1)[C@H](O)[C@@H](O)C(=O)N1CCC[C@@H]1c1cccc(Cl)c1",
    "Ki [nM]": 11
  },
  {
    "compound": "O=C(NCc1ccc(Cc2ccccc2)s1)[C@H](O)[C@@H](O)C(=O)N1CCC[C@@H]1c1cccc(Cl)c1",
    "Ki [nM]": 20
  },
  {
    "compound": "O=C(NCc1ccc(Cc2ccc(Cl)cc2)s1)[C@H](O)[C@@H](O)C(=O)N1CCC[C@@H]1c1cccc(Cl)c1",
    "Ki [nM]": 37
  },
  {
    "compound": "N#Cc1sccc1-c1ccc(CNC(=O)[C@H](O)[C@@H](O)C(=O)N2CCC[C@@H]2c2ccccc2)cc1",
    "Ki [nM]": 2
  }
]

----------
Target chain: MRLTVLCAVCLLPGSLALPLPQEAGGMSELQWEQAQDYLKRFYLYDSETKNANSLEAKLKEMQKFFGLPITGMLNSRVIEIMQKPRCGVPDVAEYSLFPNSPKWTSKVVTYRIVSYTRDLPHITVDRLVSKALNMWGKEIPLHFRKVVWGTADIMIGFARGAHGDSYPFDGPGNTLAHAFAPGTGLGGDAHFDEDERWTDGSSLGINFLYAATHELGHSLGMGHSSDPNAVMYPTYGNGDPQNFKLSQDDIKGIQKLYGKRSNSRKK
pKi: −log10 of the molar value.

[
  {
    "molecule": "O=C(NCc1ccc(-n2cccn2)cc1)[C@H](O)[C@@H](O)C(=O)N1CCCC1c1cccc(Cl)c1 (mixture of isomers)",
    "pKi": 4.33
  }
]

# credit: ChEMBL document CHEMBL1777681
